test system: MV-4-11 cells; assay: Cell proliferation assay (CellTiter-Glo), MV-4-11; type: cell-based, human; settings: Homo sapiens, MV4-11, 96 h; MV-4-11 (MLL-AF4), 4 days incubation; read-out: Cell antiproliferation assay MV-4-11 IC50
pIC50: −log10 of the molar value.
endpoint: pIC50

Take a look at these entries with their results.
# molecule, pIC50
records = [
    ("CCN(C(=O)c1cc(F)ccc1Oc1nncnc1N1CC2(CCN(C(=O)[C@H]3NC[C@H](C)[C@@H]3C)CC2)C1)C(C)C [Example 92]", 7.73),
    ("CC(C)N(CCO)C(=O)c1cc(F)ccc1Oc1cncnc1N1CC2(CCN(C(=O)[C@@H]3C[C@@H](F)CN3)CC2)C1 [Example 49]", 7.24),
    ("CCN(C(=O)c1cc(F)ccc1Oc1cncnc1N1CC2(CCN(C(=O)[C@H]3NCC[C@@H]3C)CC2)C1)C(C)C [Example 41]", 8.11),
]

I: CCN(C(=O)c1cc(F)ccc1Oc1cncnc1N1CC2(CCN(C(=O)[C@@H]3C[C@@H](C)CN3)CC2)C1)C(C)C [Example 47]
II: COc1ccc(-c2cc(F)ccc2Oc2nncnc2N2CC3(CCN(C(=O)[C@H]4NC[C@@H]5CCC[C@@H]54)CC3)C2)c(C2CC2)n1 [Example 107]
III: CCN(C(=O)c1cc(F)ccc1Oc1cncnc1N1CC2(CCN(C(=O)[C@@H]3C[C@@H](C#N)CN3)CC2)C1)C(C)C [Example 27]
Q: Put the items in order so that reported pIC50 rises from first to last. Order the labels as requested and give them as your answer.
Ans: III, I, II

* * *

molecular target: Menin-MLL1 (Homo sapiens, UniProt O00255); construct: Menin (2-610) isform2; assay: Menin-MLL1 inhibition assay (fluorescence polarization, Menin protein + FAM-MLL peptide); details: Menin (2-610) isoform 2, FAM-labelled MLL peptide, mP readout; read-out: Biochemical assay Menin-MLL1 IC50
Sequence (O00255 2-610): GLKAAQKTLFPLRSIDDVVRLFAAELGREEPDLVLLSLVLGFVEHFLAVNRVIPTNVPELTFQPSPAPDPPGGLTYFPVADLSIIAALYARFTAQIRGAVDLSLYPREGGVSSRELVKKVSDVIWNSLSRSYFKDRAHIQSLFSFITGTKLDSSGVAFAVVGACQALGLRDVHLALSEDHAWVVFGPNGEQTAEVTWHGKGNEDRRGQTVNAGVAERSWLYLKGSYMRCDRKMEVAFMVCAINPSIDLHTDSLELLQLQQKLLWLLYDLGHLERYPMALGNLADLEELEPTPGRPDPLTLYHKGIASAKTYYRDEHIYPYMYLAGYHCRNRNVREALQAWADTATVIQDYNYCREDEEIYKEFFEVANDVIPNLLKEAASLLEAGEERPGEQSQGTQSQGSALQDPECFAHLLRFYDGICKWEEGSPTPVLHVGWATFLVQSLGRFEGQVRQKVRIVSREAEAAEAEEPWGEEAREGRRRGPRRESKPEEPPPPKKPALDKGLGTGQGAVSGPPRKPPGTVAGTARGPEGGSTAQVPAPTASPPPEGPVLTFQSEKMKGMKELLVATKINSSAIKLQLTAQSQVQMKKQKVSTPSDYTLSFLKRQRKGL
pIC50: −log10 of the molar value.
endpoint: pIC50

Take a look at these entries with their results.
# smiles-representation, test-value
records = [
    ("CC(C)N(C(=O)c1cc(F)ccc1Oc1nncnc1N1CC2(CCN(C(=O)[C@H]3NCC[C@H]3C)CC2)C1)C(C)C", 8.43),
    ("CCN(C(=O)c1cc(F)ccc1Oc1nncnc1N1CC2(CCN(C(=O)[C@@H]3C[C@@H](F)CN3)CC2)C1)C(C)C", 8.38),
    ("CC(C)N(C(=O)c1cc(F)ccc1Oc1nncnc1N1CC2(CCN(C(=O)[C@@H]3C[C@@H](F)CN3)CC2)C1)C(C)C", 8.43),
    ("CCN(C(=O)c1cc(F)ccc1Oc1cncnc1N1CC2(CCN(C(=O)[C@H]3NCC[C@@H]3O)CC2)C1)C(C)C", 8.26),
    ("CCN(C(=O)c1cc(F)ccc1Oc1cncnc1N1CC2(CCN(C(=O)[C@H]3NC[C@@H]4C[C@@H]43)CC2)C1)C(C)C", 8.39),
]

1: CCN(C(=O)c1cc(F)ccc1Oc1cncnc1N1CC2(CCN(C(=O)[C@@H]3C[C@@H](C)CN3)CC2)C1)C(C)C
2: CCN(C(=O)c1cc(F)ccc1Oc1cncnc1N1CC2(CCN(C(=O)[C@@H]3C[C@@H](S(C)(=O)=O)CN3)CC2)C1)C(C)C
3: CCN(C(=O)c1cc(F)ccc1Oc1cncnc1N1CC2(CCN(C(=O)[C@@H]3C[C@@H](C#N)CN3)CC2)C1)C(C)C
4: O=C([C@H]1NC[C@@H]2CCC[C@@H]21)N1CCC2(CC1)CN(c1ncnnc1Oc1ccc(F)cc1-c1ccc(=O)[nH]c1C1CC1)C2
5: CCN(C(=O)c1cc(F)ccc1Oc1nncnc1N1CC2(CCN(C(=O)[C@H]3NC[C@H](C)[C@@H]3C)CC2)C1)C(C)C
Q: Put the items in order so that reported pIC50 rises from first to last. Order the labels as requested and give them as your answer.
Ans: 2, 3, 5, 1, 4

* * *

system: MV-4-11 cells; experiment: Cell proliferation assay (CellTiter-Glo), MV-4-11; type: cell-based, human; conditions: Homo sapiens, MV4-11, 96 h; MV-4-11 (MLL-AF4), 4 days incubation; read-out: Cell antiproliferation assay MV-4-11 IC50
endpoint: IC50 (nM)

Take a look at these entries with their results.
# molecule, endpoint, value-unit, test-value
rows = [
    ("CCN(C(=O)c1cc(Cl)ccc1Oc1cncnc1N1CC2(CCN(C(=O)[C@@H]3C[C@@H](F)CN3)CC2)C1)C(C)C", "IC50", "nM", 40.2),
    ("O=C([C@H]1NC[C@@H]2CCC[C@@H]21)N1CCC2(CC1)CN(c1ncnnc1Oc1ccc(F)cc1-c1cncnc1C1CC1)C2", "IC50", "nM", 5.6),
    ("N#Cc1ccc(-c2cc(F)ccc2Oc2nncnc2N2CC3(CCN(C(=O)[C@@H]4C[C@@H](F)CN4)CC3)C2)c(C2CC2)c1", "IC50", "nM", 20.5),
]

P: CCN(C(=O)c1cc(F)ccc1Oc1nncnc1N1CC2(CCN(C(=O)[C@@H]3C[C@H](C)CN3)CC2)C1)C(C)C
Q: CCN(C(=O)c1cc(F)ccc1Oc1nncnc1N1CC2(CCN(C(=O)[C@H]3NCC[C@@H]3CF)CC2)C1)C(C)C
Q: Consider entries P and Q . Which has the numerically lower IC50? Mark your answer with the label of the selected entry.
Ans: Q

* * *

test system: MV-4-11 cells; assay: Cell proliferation assay (CellTiter-Glo), MV-4-11; format: cell-based, human; conditions: Homo sapiens, MV4-11, 96 h; MV-4-11 (MLL-AF4), 4 days incubation; read-out: Cell antiproliferation assay MV-4-11 IC50
pIC50: −log10 of the molar value.
endpoint: pIC50

I: CO[C@H]1CCN[C@@H]1C(=O)N1CCC2(CC1)CN(c1ncnnc1Oc1ccc(F)cc1-c1ccc(C#N)nc1C1CC1)C2
II: CCN(C(=O)c1cc(F)ccc1Oc1nncnc1N1CC2(CCN(C(=O)[C@H]3NC[C@@H]4C[C@@H]43)CC2)C1)C(C)C
III: CCN(C(=O)c1cc(F)ccc1Oc1nncnc1N1CC2(CCN(C(=O)[C@@H]3NC[C@@H]4CC(F)(F)C[C@@H]43)CC2)C1)C(C)C (single isomer, unassigned) [Example 98b]
Q: Lab note: arrange the 3 compounds above from lowest to highest pIC50. Order the labels as requested and give them as your answer.
Ans: III, II, I

* * *

tested on: MV-4-11 cells; test: Cell proliferation assay (CellTiter-Glo), MV-4-11; format: cell-based, human; conditions: Homo sapiens, MV4-11, 96 h; MV-4-11 (MLL-AF4), 4 days incubation; read-out: Cell antiproliferation assay MV-4-11 IC50
pIC50: −log10 of the molar value.
endpoint: pIC50

Take a look at these entries with their results.
# compound, test-system, pIC50
rows = [
    ("CCN(C(=O)c1cc(F)ccc1Oc1nncnc1N1CC2(CCN(C(=O)[C@H]3NC[C@@H]4CC(F)(F)C[C@@H]43)CC2)C1)C(C)C (single isomer, unassigned) [Example 98d]", "MV-4-11 cells", 7.53),
    ("CC1(C)[C@@H]2[C@@H](C(=O)N3CCC4(CC3)CN(c3ncnnc3Oc3ccc(F)cc3-c3ccc(C#N)nc3C3CC3)C4)NC[C@@H]21 [Example 95]", "MV-4-11 cells", 8.26),
    ("CC1(C)[C@@H]2[C@@H](C(=O)N3CCC4(CC3)CN(c3ncnnc3Oc3ccc(F)cc3-c3cncnc3C3CC3)C4)NC[C@@H]21 [Example 81]", "MV-4-11 cells", 8.11),
    ("C[C@@H]1CCN[C@@H]1C(=O)N1CCC2(CC1)CN(c1ncnnc1Oc1ccc(F)cc1-c1cncnc1C1CC1)C2 [Example 69]", "MV-4-11 cells", 7.25),
    ("CCN(C(=O)c1cc(F)ccc1Oc1cncnc1N1CC2(CCN(C(=O)[C@H]3NCC[C@H]3O)CC2)C1)C(C)C [Example 7]", "MV-4-11 cells", 6.66),
    ("O=C([C@H]1NC[C@@H]2CCC[C@@H]21)N1CCC2(CC1)CN(c1ncnnc1Oc1ccc(F)cc1-c1cccnc1C1CC1)C2 [Example 103]", "MV-4-11 cells", 8.82),
    ("CCN(C(=O)c1cc(F)ccc1Oc1nncnc1N1CC2(CCN(C(=O)[C@H]3NCCC3(C)C)CC2)C1)C(C)C [Example 65]", "MV-4-11 cells", 7.82),
    ("CC(C)N(CCO)C(=O)c1cc(F)ccc1Oc1nncnc1N1CC2(CCN(C(=O)[C@H]3NC[C@@H]4CCC[C@@H]43)CC2)C1 [Example 104]", "MV-4-11 cells", 7.57),
]

1: CCN(C(=O)c1cc(F)ccc1Oc1nncnc1N1CC2(CCN(C(=O)[C@H]3NCC[C@@H]3OC)CC2)C1)C(C)C [Example 84]
2: CCN(C(=O)c1ccccc1Oc1cncnc1N1CC2(CCN(C(=O)[C@@H]3C[C@@H](F)CN3)CC2)C1)C(C)C [Example 36]
3: CCN(C(=O)c1cc(F)ccc1Oc1cncnc1N1CC2(CCN(C(=O)[C@@H]3C[C@@H](OC(F)F)CN3)CC2)C1)C(C)C [Example 10]
4: CCN(C(=O)c1cc(F)ccc1Oc1cncnc1N1CC2(CCN(C(=O)[C@@H]3COCCN3)CC2)C1)C(C)C [Example 26]
5: CO[C@H]1CCN[C@@H]1C(=O)N1CCC2(CC1)CN(c1ncnnc1Oc1ccc(F)cc1-c1ccc(C#N)cc1C1CC1)C2 [Example 96]
Q: Put the items in order so that reported pIC50 rises from first to last. Order the labels as requested and give them as your answer.
Ans: 4, 3, 2, 1, 5
